experimental-protocol: NCI Yeast Anticancer Drug Screen. Data for the mlh1 rad18 strain (AID 175)
test-parameters: S. cerevisiae mlh1 rad18 strain growth inhibition; at 50.0 µM; active compounds read high
Compounds without any hit were thinned out: in the full panel of roughly 79,000, 15% have a hit.
measurement-kind: growth inhibition (%)
State the answer as a number, implicitly in %.

Below, each entry is followed by its recorded growth inhibition result.
compound	growth inhibition, %
CC(=O)[O-].Cn1ccnc1CNCc1nccn1C.[Cu+2].[O-][Cl+3]([O-])([O-])[O-]	5.25
CC(C)CCN(CCC(C)C)CC(O)c1ccc(Br)cc1 (stereo not given)	0.35
CNC(P(=O)([O-])[O-])P(=O)([O-])[O-].N.N.[Pt+2]	-15.7

Measured growth inhibition, CCOc1ccc([N+](=O)[O-])cc1CNCCBr : 12.2

====

experimental-protocol: NCI Yeast Anticancer Drug Screen. Data for the rad50 strain (AID 155);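 further: 0% = growth of vehicle-only cultures of the same strain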
test-parameters: S. cerevisiae rad50 strain growth inhibition; at 50.0 µM
This is part of a sample that, as a whole, favours compounds with a hit. Of some 79,000 tested, about 15% had one in any assay. Active and inactive are the calls of the source. Rule as the data show it: active = growth inhibition above about 70%; inactive = the rest.
Tick one outcome: 1.0 = active, 0.0 = inactive

compound	assigned-class
O=C1NC(=O)C2(CCc3ccc(N(CCCl)CCCl)cc32)N1 (centres undefined)	0.0

Hi, sorry to bother you, what did the test record for CC(=O)[O-].Cn1ccnc1CNCc1nccn1C.[Cu+2].[O-][Cl+3]([O-])([O-])[O-] ?
0.0

Hi, sorry to bother you, what did the test record for O=c1c2cc(Br)cc(Br)c2[nH]c(=S)n1-c1ccccc1 ?
0.0

====

experimental-protocol: NCI Yeast Anticancer Drug Screen. Data for the mec2-1 strain (AID 157)
test-parameters: S. cerevisiae mec2-1 strain, at 50.0 µM, active compounds read high
About 79,000 compounds went through this panel and 15% of them were active in at least one assay; those are over-represented in the sample as a whole.
measurement-kind: growth inhibition (%)
State the answer as a number, implicitly in %.

Below, each entry is followed by its recorded growth inhibition result.
In [3]: df
Out[3]:
                                   molecule  reported_value
0      O=P1(O)NP(=O)(O)NP(=O)(O)NP(=O)(O)N1             2.9
1  C/C(CC(=O)Nc1ccc([N+](=O)[O-])cc1)=N\Nc1ccc([N+](=O)[O-])cc1[N+](=O)[O-]            15.9
2  O=C(O)C(CSC(c1ccccc1)(c1ccccc1)c1ccccc1)N=Cc1cccs1 (stereo not drawn)           -1.65
3  N#CS.[Cr+3].[NH-]CC[NH-].[NH-]CC[NH-].[NH-]CC[NH-]            -0.5
4   CCC(CC)CNC(=O)C(C)Br (stereo not drawn)            1.85
5  CC(CC(C#N)(c1ccccc1)c1ccccc1)[N+]1(C)CCCCCCC1 (stereo not drawn)             1.2
6  O=C(Oc1ccc(S(=O)(=O)F)cc1Cl)c1ccc([N+](=O)[O-])cc1              68
7  COc1cc(C(=O)[O][Hg][CH2]C2CC(O)CC([CH2][Hg][O]C(=O)c3cc(OC)c(OC)c(OC)c3)O2)cc(OC)c1OC (stereo not drawn)            99.6

Measured growth inhibition, N.N.N.N.[Co+3].[O-][Cl+3]([O-])([O-])[O-].[OH3+].[OH3+] : -1.15

Measured growth inhibition, CC1(C)CC2(c3ccccc3)CC(c3ccccc3)C1C(C(=O)O)C2C(=O)O (stereo not drawn) : 99.3

Measured growth inhibition, CCCCCCCC[As](C)(=O)O : 2.85

Measured growth inhibition, O=C1NC(=S)NC(=O)C1=Cc1cccc2cc3ccccc3cc12 : 98.8

Measured growth inhibition, BrC(Br)c1cccc(C(Br)Br)c1 : 37.8
